Reported Kd is given for each of the following binders.
Target: T1, Human PD-L2-HIS (human, UniProt Q9BQ51 20-220)
T1 construct: also called His-tagged human PD-L2; not shown: His tag
T1 sequence: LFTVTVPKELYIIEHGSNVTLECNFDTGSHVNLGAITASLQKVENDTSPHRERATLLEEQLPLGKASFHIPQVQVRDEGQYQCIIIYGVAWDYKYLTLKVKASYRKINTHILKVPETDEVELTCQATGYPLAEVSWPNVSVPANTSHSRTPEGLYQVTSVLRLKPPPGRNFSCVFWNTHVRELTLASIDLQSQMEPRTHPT
Experiment: ForteBio, IgG, monovalent
Numeric only. Scale: nM

Before answering, review these 3 worked examples.
| binder | unit_symbol | Kd |
| --- | --- | --- |
| BiPDL3-34 (antibody, V domains shown, IgG; also called ADI-37468; 37468) VH: QVQLQQWGAGLLKPSETLSLTCAVYGGSLSGYPWSWIRQPPGKGLEWIGETDVSGWTDYNPSLKSRVTISVDTSKNQFSLKLSSVTAADTAVYYCARDGRRMGTPSFDIWGQGTMVTVSS VL: DIQMTQSPSSVSASVGDRVTITCRASQDISSFLAWYQQKPGKAPKLLIYAASSLQDGVPSRFSGSGSGTDFTLTISSLQPEDFATYYCQKSVYFPPTFGGGTKVEIK | nM | 0.844 |
| BiPDL3-14 (antibody, V domains shown, IgG; also called ADI-37464; 37464) VH: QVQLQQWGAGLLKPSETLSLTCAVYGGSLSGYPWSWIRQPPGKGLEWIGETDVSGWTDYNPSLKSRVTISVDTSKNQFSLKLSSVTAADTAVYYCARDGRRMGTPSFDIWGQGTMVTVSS VL: DIQMTQSPSSVSASVGDRVTITCRASQGINSFLAWYQQKPGKAPKLLIYAASSLNSGVPSRFSGSGSGTDFTLTISSLQPEDFATYYCQKAVYFPPTFGGGTKVEIK | nM | 0.684 |
| BiPDL3-24 (antibody, V domains shown, IgG; also called ADI-37465; 37465) VH: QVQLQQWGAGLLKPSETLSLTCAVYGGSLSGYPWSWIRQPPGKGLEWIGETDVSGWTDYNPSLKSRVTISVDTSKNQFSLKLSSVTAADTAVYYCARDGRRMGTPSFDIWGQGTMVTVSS VL: DIQMTQSPSSVSASVGDRVTITCRASQGISNFLAWYQQKPGKAPKLLIYAASSLQSGVPSRFSGSGSGTDFTLTISSLQPEDFATYYCQKAVYFPPTFGGGTKVEIK | nM | 0.868 |

Recorded Kd for BiPDL3-44 (antibody, V domains shown, IgG; also called ADI-37475; 37475) VH: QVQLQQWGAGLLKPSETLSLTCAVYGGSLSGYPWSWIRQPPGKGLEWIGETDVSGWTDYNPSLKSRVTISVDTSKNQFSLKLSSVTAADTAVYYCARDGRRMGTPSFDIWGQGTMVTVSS VL: DIQMTQSPSSVSASVGDRVTITCRASQGISTFLAWYQQKPGKAPKLLIYAASALHSGVPSRFSGSGSGTDFTLTISSLQPEDFATYYCQRAVYFPPTFGGGTKVEIK , please?
1.45
